target: UniProt:P36888; assay: Inhibition of FLT3 phosphorylation by cell based assay
Sequence (P36888 whole entry): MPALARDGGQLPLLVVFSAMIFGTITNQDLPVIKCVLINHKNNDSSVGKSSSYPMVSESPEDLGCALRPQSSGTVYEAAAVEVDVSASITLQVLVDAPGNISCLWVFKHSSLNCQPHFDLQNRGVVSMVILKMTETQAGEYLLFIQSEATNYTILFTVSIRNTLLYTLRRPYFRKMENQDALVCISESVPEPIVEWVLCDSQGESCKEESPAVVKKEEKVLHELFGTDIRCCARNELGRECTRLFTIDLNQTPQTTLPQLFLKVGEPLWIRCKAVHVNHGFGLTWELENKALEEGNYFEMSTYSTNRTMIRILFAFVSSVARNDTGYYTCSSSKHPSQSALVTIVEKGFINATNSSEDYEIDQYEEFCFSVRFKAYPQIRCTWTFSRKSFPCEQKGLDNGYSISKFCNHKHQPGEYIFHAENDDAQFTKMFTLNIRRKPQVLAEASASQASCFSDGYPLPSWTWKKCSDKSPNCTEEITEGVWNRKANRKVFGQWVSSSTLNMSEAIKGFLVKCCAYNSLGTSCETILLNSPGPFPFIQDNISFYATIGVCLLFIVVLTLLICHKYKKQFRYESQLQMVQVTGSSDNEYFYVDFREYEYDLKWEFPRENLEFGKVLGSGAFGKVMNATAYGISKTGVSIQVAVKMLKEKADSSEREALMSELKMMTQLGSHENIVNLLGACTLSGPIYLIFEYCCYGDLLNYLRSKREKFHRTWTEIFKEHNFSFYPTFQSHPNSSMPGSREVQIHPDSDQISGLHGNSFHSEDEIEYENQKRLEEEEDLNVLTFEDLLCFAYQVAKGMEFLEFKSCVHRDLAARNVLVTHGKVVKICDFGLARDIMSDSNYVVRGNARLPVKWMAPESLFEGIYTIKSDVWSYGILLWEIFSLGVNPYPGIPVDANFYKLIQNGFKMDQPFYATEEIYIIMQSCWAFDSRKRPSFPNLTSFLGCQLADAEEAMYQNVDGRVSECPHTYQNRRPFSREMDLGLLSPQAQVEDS
pIC50: −log10 of the molar value.
attributeMeasured: pIC50

COc1cccc(NC(=O)Cn2cc(Nc3ncnc4cc(OC)c(OC)cc34)cn2)c1
< 7.70
COc1cccc(S(=O)(=O)NCc2ccc(Oc3ncnc4cc(OC)c(OC)cc34)cc2)c1
< 6.00
COc1cccc(NC(=O)Cc2cccc(Oc3ncnc4cc(OC)c(OC)cc34)c2)c1
< 6.00

Which pIC50 is reported for this molecule? COc1cccc(C(=O)NCc2ccc(Oc3ncnc4cc(OC)c(OC)cc34)cc2)c1
< 6.00
